# Test system: human red blood cells
# Format: cell-based
# applied_conditions: red cells of human, 1 h
Square brackets hold non-standard residues; d marks the D form. Peptide text beside a SMILES is read from it. 2Nal = N[C@@H](Cc1ccc2ccccc2c1)C(=O)O; d1Nal = N[C@H](Cc1cccc2ccccc12)C(=O)O; Nle = CCCC[C@H](N)C(=O)O
recorded_metric: EC50 (µM)

>  <compound>
CC(C)C[C@@H](NC(=O)[C@H](CCCCN)NC(=O)[C@H](CCCCN)NC(=O)[C@@H](N)CCCCN)C(=O)N[C@H](Cc1cccc2ccccc12)C(=O)N[C@H](Cc1ccc(O)cc1)C(=O)N[C@H](Cc1cccc2ccccc12)C(N)=O [Compound 25] (H-KKK[dL][d1Nal][dY][d1Nal]-NH2; N-terminus assumed)

>  <recorded_metric>
EC50

>  <obs_value>
138

$$$$
>  <compound>
CCCC[C@H](NC(=O)[C@H](CCCCN)NC(=O)[C@H](CCCCN)NC(=O)[C@@H](N)CCCCN)C(=O)N[C@@H](Cc1ccc2ccccc2c1)C(=O)N[C@@H](Cc1ccc(O)cc1)C(=O)N[C@@H](Cc1ccc2ccccc2c1)C(N)=O [Compound 27] (H-KKK[Nle][2Nal]Y[2Nal]-NH2; N-terminus assumed)

>  <recorded_metric>
EC50

>  <obs_value>
56

$$$$

* * *

# Tested on: human red blood cells
# Assay type: cell-based
# applied_conditions: red cells of human, 1 h
Square brackets hold non-standard residues; d marks the D form. Peptide text beside a SMILES is read from it. 1Nal = N[C@@H](Cc1cccc2ccccc12)C(=O)O; d1Nal = N[C@H](Cc1cccc2ccccc12)C(=O)O; Nle = CCCC[C@H](N)C(=O)O
recorded_metric: EC50 (µM)

>  <compound>
CC(C)C[C@H](NC(=O)[C@H](CCCCN)NC(=O)[C@@H](N)CCCCN)C(=O)N[C@@H](CCCCN)C(=O)N[C@@H](Cc1cccc2ccccc12)C(=O)N[C@@H](Cc1ccccc1)C(=O)N[C@@H](Cc1cccc2ccccc12)C(N)=O [Compound 6] (H-KKLK[1Nal]F[1Nal]-NH2; N-terminus assumed)

>  <recorded_metric>
EC50

>  <obs_value>
58

$$$$
>  <compound>
CC(C)C[C@@H](NC(=O)[C@H](CCCCN)NC(=O)[C@H](CCCCN)NC(=O)[C@@H](N)CCCCN)C(=O)N[C@H](Cc1cccc2ccccc12)C(=O)N[C@H](Cc1ccccc1)C(=O)N[C@H](Cc1cccc2ccccc12)C(N)=O [Compound 15] (H-KKK[dL][d1Nal][dF][d1Nal]-NH2; N-terminus assumed)

>  <recorded_metric>
EC50

>  <obs_value>
40

$$$$
>  <compound>
CCCC[C@H](NC(=O)[C@H](CCCCN)NC(=O)[C@H](CCCCN)NC(=O)[C@@H](N)CCCCN)C(=O)N[C@@H](Cc1cccc2ccccc12)C(=O)N[C@@H](Cc1ccccc1)C(=O)N[C@@H](Cc1cccc2ccccc12)C(N)=O [Compound 24] (H-KKK[Nle][1Nal]F[1Nal]-NH2; N-terminus assumed)

>  <recorded_metric>
EC50

>  <obs_value>
41

$$$$

* * *

Reported Haemolysis EC10 values for a set of compounds
# Test system: human red blood cells
# Assay type: cell-based
Square brackets hold non-standard residues; d marks the D form. Peptide text beside a SMILES is read from it. 2Nal = N[C@@H](Cc1ccc2ccccc2c1)C(=O)O; d1Nal = N[C@H](Cc1cccc2ccccc12)C(=O)O; Nlys = NCCCCNCC(=O)O
recorded_metric: Haemolysis EC10 (µM)

>  <compound>
CC(C)C[C@H](NC(=O)CN(CCCCN)C(=O)CN(CCCCN)C(=O)CNCCCCN)C(=O)N[C@@H](Cc1ccc2ccccc2c1)C(=O)N[C@@H](Cc1ccccc1)C(=O)N[C@@H](Cc1ccc2ccccc2c1)C(N)=O [Compound 29] (H-[Nlys][Nlys][Nlys]L[2Nal]F[2Nal]-NH2; N-terminus assumed)

>  <recorded_metric>
Haemolysis EC10

>  <obs_value>
9

$$$$
>  <compound>
CC(C)C[C@@H](NC(=O)[C@H](CCCCN)NC(=O)[C@H](CCCCN)NC(=O)[C@@H](N)CCCCN)C(=O)N[C@H](Cc1cccc2ccccc12)C(=O)N[C@H](Cc1ccc(O)cc1)C(=O)N[C@H](Cc1cccc2ccccc12)C(N)=O [Compound 25] (H-KKK[dL][d1Nal][dY][d1Nal]-NH2; N-terminus assumed)

>  <recorded_metric>
Haemolysis EC10

>  <obs_value>
38

$$$$
